target: full length (FL) LXRα (Homo sapiens); construct: the full length (FL) proteins of LXRα (amino acids 1-447); NP005684; expressed in transfected cells; host or cells: HEK293; assay: LXR Gal4 reporter transient transfection assay (FL-M2H Gal4α); assay type: cell-based; conditions: HEK293 cells, full length LXRα; read-out: FL-M2H Gal4α (EC50 range)
Sequence (Q13133 whole entry, the tested form may be a part): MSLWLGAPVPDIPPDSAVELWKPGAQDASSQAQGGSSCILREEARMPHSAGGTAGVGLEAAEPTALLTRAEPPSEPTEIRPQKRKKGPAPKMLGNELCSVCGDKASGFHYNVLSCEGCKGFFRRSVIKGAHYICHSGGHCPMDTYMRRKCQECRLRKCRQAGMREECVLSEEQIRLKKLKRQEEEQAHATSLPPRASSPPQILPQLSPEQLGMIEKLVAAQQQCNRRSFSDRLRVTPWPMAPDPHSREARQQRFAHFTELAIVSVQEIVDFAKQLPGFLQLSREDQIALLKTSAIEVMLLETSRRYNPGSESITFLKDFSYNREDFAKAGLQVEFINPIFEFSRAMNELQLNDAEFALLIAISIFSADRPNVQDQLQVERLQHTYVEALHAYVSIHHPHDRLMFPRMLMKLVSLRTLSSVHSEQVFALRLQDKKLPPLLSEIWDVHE
Reported EC50 values for the following molecules.

Solved cases below.
- MOLECULE: "CC(C)(O)c1ccc(S(=O)(=O)n2c(-c3cccc(-c4ccc(C(=O)O)cc4Cl)c3)c(-c3ccccc3C#N)c3cc(F)ccc32)cc1 [30/16]"
  EC50: "100 to 1000 nM"
- MOLECULE: "O=C(NCCS(=O)(=O)O)C1CC1c1cccc(-c2c(-c3c(Cl)cccc3Cl)c3cc(F)ccc3n2S(=O)(=O)c2ccc(C(F)F)cc2)c1 (stereo not shown) [10/4]"
  EC50: "100 to 1000 nM"
- MOLECULE: "N#Cc1sccc1-c1c(-c2cccc(-c3ccc(C(=O)O)cc3Cl)c2)n(S(=O)(=O)c2ccc(C(F)(F)F)nc2)c2ccc(F)cc12 [11/16]"
  EC50: "< 100 nM"
- MOLECULE: "CCc1ccc(S(=O)(=O)n2c(-c3cccc(N4CC(C(=O)O)C4)c3)c(-c3ccsc3C#N)c3cc(F)ccc32)cc1 [3/10]"
  EC50: "100 to 1000 nM"

Requested read-out: EC50. Entry: Cc1ccc(S(=O)(=O)n2c(-c3cccc(-c4ccc(C(C)(C)N)cc4Cl)c3)c(-c3ccsc3C#N)c3cc(F)ccc32)cc1 [2/2]
100 to 1000 nM

* * *

assay: Pharmacokinetics in mice after single oral dosing (blood/plasma and liver exposure); assay type: in vivo, mice (C57/bl6/J); conditions: 20 mg/kg single oral dose, time point 4 h
ENDPOINT NAME: liver/blood ratio

- MOLECULE: "N#Cc1sccc1-c1c(-c2cccc(C3CC3C(=O)O)c2)n(S(=O)(=O)c2ccc(Cl)cc2)c2ccccc12 (stereo not drawn)"
  liver/blood ratio: "C (C: 10 to ≤30)"
- MOLECULE: "Cc1ccc(S(=O)(=O)n2c(-c3cccc(-c4ccc(C(=O)O)cc4)c3)c(-c3ccsc3C#N)c3cc(F)ccc32)cc1C"
  liver/blood ratio: "C (C: 10 to ≤30)"
- MOLECULE: "N#Cc1sccc1-c1c(-c2cccc(N3CC(C(=O)O)C3)c2)n(S(=O)(=O)c2ccc(Cl)cc2)c2ccccc12"
  liver/blood ratio: "D (D: >30)"
- MOLECULE: "Cc1ccc(S(=O)(=O)n2c(-c3cccc(-c4ccc(C(=O)O)cc4)c3)c(-c3ccsc3C#N)c3cc(F)ccc32)cc1"
  liver/blood ratio: "C (C: 10 to ≤30)"

# lookup: liver/blood ratio of N#Cc1sccc1-c1c(-c2cccc(C3CC3C(=O)O)c2)n(S(=O)(=O)c2ccc(Cl)cc2)c2ccc(F)cc12 (stereo not drawn)
D (D: >30)

* * *

Target: LXRβ ligand-binding domain (Homo sapiens, UniProt P55055, DUP175-175)
Construct: amino acids 156-461; NP009052; made in house; host or cells: E. coli
Sequence (P55055 with tags, fused parts or gaps DUP175-175 limits assumed): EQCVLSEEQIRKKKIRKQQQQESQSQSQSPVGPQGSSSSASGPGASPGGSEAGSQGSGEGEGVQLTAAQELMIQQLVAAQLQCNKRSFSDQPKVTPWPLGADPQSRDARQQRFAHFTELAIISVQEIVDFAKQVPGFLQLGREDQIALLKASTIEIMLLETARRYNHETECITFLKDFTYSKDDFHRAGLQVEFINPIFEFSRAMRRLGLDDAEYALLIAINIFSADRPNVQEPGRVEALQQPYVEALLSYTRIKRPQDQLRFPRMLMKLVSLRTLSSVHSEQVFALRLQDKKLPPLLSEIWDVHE
Experiment: TR-FRETβ activity assay (NCoA3 coactivator peptide recruitment)
Assay type: biochemical
Conditions: TR-FRET, 1 μM 24(S)-25-epoxycholesterol prestimulation; read-out: FRETβ (EC50 range)
ENDPOINT NAME: EC50

Illustrative cases are given below, each with its answer.
- ITEM SMILES: "N#Cc1ccccc1-c1c(-c2cccc(-c3ccc(C(=O)O)cc3Cl)c2)n(S(=O)(=O)c2ccc(C(F)F)cc2)c2ccc(F)cc12"
  TGT: "LXRβ ligand-binding domain (Homo sapiens, UniProt P55055, DUP175-175)"
  EC50: "< 100 nM"
- ITEM SMILES: "Cc1cccc(C(F)F)c1-c1c(-c2cccc(-c3ccc(C(=O)O)cc3Cl)c2)n(S(=O)(=O)c2ccc(C(F)F)cc2)c2ccc(F)cc12"
  TGT: "LXRβ ligand-binding domain (Homo sapiens, UniProt P55055, DUP175-175)"
  EC50: "< 100 nM"

In the following, a different molecule is considered.
# lookup: EC50 of CC(C)(C)OC(=O)CNC(=O)c1ccc(-c2cccc(-c3c(-c4c(C#N)cccc4C#N)c4cc(F)ccc4n3S(=O)(=O)c3ccc(C(F)F)cc3)c2)c(Cl)c1
< 100 nM

Entry source: patent US11618747B2
